Where these numbers come from: ChEMBL document CHEMBL1126775

- Species on record: Cavia porcellus
- protocol notes: Effect on contractile force of spontaneously beating atria from reserpine treated guinea pigs at the concentration of 5x 10 e-4 M
- Assay type: functional
The threshold is inclusive: Increase of exactly 20% counts as criterion met; values below receive criterion not met.

// below: answered molecules
CC(=O)c1cc(C#N)c(O)nc1C = criterion met
O=C1CCCc2nc(O)ccc21 = criterion met
Nc1cc(-c2ccncc2)c[nH]c1=O = criterion met
CC1CC(=O)c2cc(C(=O)O)c(O)nc2C1 (configuration not stated) = criterion not met
CC(=O)c1ccc(O)nc1C = criterion not met
Cc1[nH]c(=O)c(C#N)cc1-c1ccncc1 = criterion met

Now turn to the next molecule.
input: Could you please find out whether CC1CC(=O)c2ccc(O)nc2C1 (configuration not stated) has Increase that meets 20% or exceeds it?
output: criterion met

###

- Species on record: Cavia porcellus
- protocol notes: Effect on contractile force of spontaneously beating atria from reserpine treated guinea pigs at the concentration of 10 e-3 M (negative ionotropic effect)
- Type: functional
measured property: Increase (%)
Give bare numbers, in %.

The following compounds have reported results that may help.
CC(C)(C)C(=O)c1cc(C#N)c(O)nc1C(C)(C)C = -81.39
O=C(O)c1cc(C(=O)c2ccccc2)c(-c2ccccc2)nc1O = -90.39
O=C(O)c1cc2c(nc1O)CC(c1ccccc1)CC2=O (stereo not drawn) = -23.77
CC(C)C(=O)c1ccc(O)nc1C(C)C = -26.37
CC1(C)CC(=O)c2cc(C(=O)O)c(O)nc2C1 = -3.94
N#Cc1cc(C(=O)c2ccccc2)c(-c2ccccc2)nc1O = -35.54

List the reported Increase of each compound below.
1. O=C(c1ccccc1)c1ccc(O)nc1-c1ccccc1
2. CC(C)C(=O)c1cc(C#N)c(O)nc1C(C)C

output:
1: -43.71; 2: -67.64

###

- Organism: Cavia porcellus
- protocol notes: Effect on contractile force of spontaneously beating atria from reserpine treated guinea pigs at the concentration of 5x 10 e-5 M (negative ionotropic effect)
- Assay type: functional
measured property: Increase (%)
One number for each entry, in %.

The following compounds have reported results that may help.
O=C(O)c1cc(C(=O)c2ccccc2)c(-c2ccccc2)nc1O = -1.52
CC1(C)CC(=O)c2ccc(O)nc2C1 = -3.45
O=C(c1ccccc1)c1ccc(O)nc1-c1ccccc1 = -7.3

input: What value of measured Increase is listed for N#Cc1cc(C(=O)c2ccccc2)c(-c2ccccc2)nc1O ?
output: -6.67

###

- Species: Cavia porcellus
- protocol notes: Effect on contractile force of spontaneously beating atria from reserpine treated guinea pigs at the concentration of 5x 10 e-4 M
- Format: functional
Field: Increase. Provide a value for each of the molecules that follow.
Give bare numbers, in %.

The following molecules have reported results that may help.
CC1(C)CC(=O)c2cc(C(=O)O)c(O)nc2C1 = -0.69
O=C1CC(c2ccccc2)Cc2nc(O)ccc21 (centres undefined) = 1.46

List the reported Increase of each molecule below.
1. N#Cc1cc2c(nc1O)CCCC2=O
2. CC(=O)c1cc(C(=O)O)c(O)nc1C

output:
25.67
9.55
